Target: Cytochrome P450 2D6 (Homo sapiens) (UniProt P10635)
Sequence (P10635 whole entry, looked up): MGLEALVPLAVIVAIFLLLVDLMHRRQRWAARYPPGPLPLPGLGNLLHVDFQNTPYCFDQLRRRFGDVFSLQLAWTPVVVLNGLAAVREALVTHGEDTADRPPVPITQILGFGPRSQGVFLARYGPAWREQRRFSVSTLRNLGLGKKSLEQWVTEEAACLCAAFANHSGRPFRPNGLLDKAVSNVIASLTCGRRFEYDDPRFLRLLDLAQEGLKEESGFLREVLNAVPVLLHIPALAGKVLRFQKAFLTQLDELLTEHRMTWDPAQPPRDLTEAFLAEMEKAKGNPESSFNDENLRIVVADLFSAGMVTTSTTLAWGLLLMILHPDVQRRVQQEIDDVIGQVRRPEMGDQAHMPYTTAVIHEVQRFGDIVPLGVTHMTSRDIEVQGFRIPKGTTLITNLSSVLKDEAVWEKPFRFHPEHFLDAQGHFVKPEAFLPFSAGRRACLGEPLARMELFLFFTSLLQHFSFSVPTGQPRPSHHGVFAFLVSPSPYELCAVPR
Assay: Cytochrome panel assay with activity outcomes; note: % is set by controls: 0 for no effect and ±100 for the full control effect
Settings: recombinant CYP, pro-luciferin dealkylation, luminescence, p450-cyp2d6; series mostly up to 57.1 µM
Screen size: about 16,000 compounds; about 2,600 (16%) were called active. Another 20% or so got no clear call; they are omitted. Only a sample is shown.
Assay readout: activity, negative = inhibition

Here's what some known entries look like.
O=C(O)C(=O)/C=C(\O)c1ccc(Br)cc1 | -0.0145% [at 11.4 µM] (inactive)
Cc1ccc(S(=O)(=O)Oc2cc(S(=O)(=O)O)cc3cc(S(=O)(=O)O)cc(N)c23)cc1 | 8.03% [at 11.4 µM] (inactive)
NC1=C2NC=N[C@@H]2N(C/C=C\c2ccccc2)C=N1 | -12.6% [at 11.4 µM] (inactive)
C/C(C[n+]1ccccc1)=N\N=C(N)N | 6.81% [at 11.4 µM] (inactive)
CO[C@H]1COC(=O)[C@H](C)NC(=O)C/C=C\[C@@H](C)[C@@H](NS(=O)(=O)c2ccc(C)cc2)COC(=O)C/C=C\[C@@H]1C | 6.92% [at 11.4 µM] (inactive)

Entry "CC(=O)/C(=C\c1ccccc1F)C(=O)c1ccccc1" : reported activity, negative = inhibition = ?
-1.17% [at 11.4 µM] (inactive)

Entry "CC(C)=CCC/C(C)=C/CO/N=C1/C[C@@H](O)[C@@H](O)[C@@H]2[C@H]3C(=O)N(c4ccc(F)cc4F)C(=O)[C@@H]3CC[C@H]12" : reported activity, negative = inhibition = ?
6.74% [at 11.4 µM] (inactive)

Entry "O=C(O)CCNc1ncnc2nc[nH]c12" : reported activity, negative = inhibition = ?
9.14% [at 11.4 µM] (inactive)

Entry "CC(=O)C[C@H](O)[C@@H](NC(=O)OC(C)(C)C)C(C)C" : reported activity, negative = inhibition = ?
-3.21% [at 11.4 µM] (inactive)

Entry "O=C1CCCC=C1[C@@H](O)CCOC(c1ccccc1)(c1ccccc1)c1ccccc1" : reported activity, negative = inhibition = ?
-20.1% [at 11.4 µM] (inactive)

Entry "OCCCNc1ncnc2[nH]ncc12" : reported activity, negative = inhibition = ?
15.1% [at 11.4 µM] (inactive)
